The measured values listed here are drawn from PubChem BioAssay AID1240.

Molecular target: Bcl-2-like protein 10 (Homo sapiens)
Experiment: TR3 peptide-Bcl-B binding displacers, biochemical primary FP assay, phenotype converters (AID 1240);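 further: 0% = Bcl-B with tracer peptide and DMSO and 100% = tracer peptide lacking Bcl-B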
Settings: GST-Bcl-B / FITC-TR3 peptide fluorescence polarization; stronger effect = higher value; compound at 3.75 mg/L
The campaign covered roughly 50,000 compounds. About 800 (1.6%) showed an effect of 50% or more. Shown is part of a subset that was picked to be rich in strong results.
Overview of reported displacement across a group of molecules:
metric_name: displacement (%)

[[record]]
molecule = "COc1ccc(-n2nnnc2C(=Cc2ccc(N(C)C)cc2)c2nnnn2-c2ccc(OC)cc2)cc1"
metric_name = "displacement"
unit_spec = "%"
value_measured = 157

[[record]]
molecule = "COc1cc(C)nc(Nc2nc(C)c3ccc(C)cc3n2)n1"
metric_name = "displacement"
unit_spec = "%"
value_measured = 13.2

[[record]]
molecule = "O=C(c1ccccc1)N1CCN(Cc2cccc(Oc3ccccc3)c2)CC1"
metric_name = "displacement"
unit_spec = "%"
value_measured = -8.8

[[record]]
molecule = "COc1ccc(S(=O)(=O)N2CCN(C3CC4CCC3C4)CC2)cc1 (stereo not given)"
metric_name = "displacement"
unit_spec = "%"
value_measured = -1.9

[[record]]
molecule = "COc1ccc(C(=O)Nc2cccc(S(N)(=O)=O)c2)cc1"
metric_name = "displacement"
unit_spec = "%"
value_measured = -5.8

[[record]]
molecule = "O=C(Nc1ccc(S(=O)(=O)N2CCc3ccccc32)cc1)c1ccc(Cl)cc1"
metric_name = "displacement"
unit_spec = "%"
value_measured = 0.8

[[record]]
molecule = "Cc1cccc(NC(=O)CCCN2C(=O)c3cccc4cccc(c34)C2=O)n1"
metric_name = "displacement"
unit_spec = "%"
value_measured = 0.6

[[record]]
molecule = "COc1ccc2nc(Nc3nc(C)cc(-c4ccccc4)n3)nc(C)c2c1"
metric_name = "displacement"
unit_spec = "%"
value_measured = -14.2

[[record]]
molecule = "O=c1c2ccccc2nc(/C=C/c2cccc([N+](=O)[O-])c2)n1-c1cccc2ccccc12"
metric_name = "displacement"
unit_spec = "%"
value_measured = 5

[[record]]
molecule = "O=C(Nc1ccc(Cl)c(C(F)(F)F)c1)c1cccs1"
metric_name = "displacement"
unit_spec = "%"
value_measured = -5.7

